Biological target: Glucose-6-phosphatase catalytic subunit 1 (Homo sapiens) (UniProt P35575)
Sequence (P35575 whole entry, looked up): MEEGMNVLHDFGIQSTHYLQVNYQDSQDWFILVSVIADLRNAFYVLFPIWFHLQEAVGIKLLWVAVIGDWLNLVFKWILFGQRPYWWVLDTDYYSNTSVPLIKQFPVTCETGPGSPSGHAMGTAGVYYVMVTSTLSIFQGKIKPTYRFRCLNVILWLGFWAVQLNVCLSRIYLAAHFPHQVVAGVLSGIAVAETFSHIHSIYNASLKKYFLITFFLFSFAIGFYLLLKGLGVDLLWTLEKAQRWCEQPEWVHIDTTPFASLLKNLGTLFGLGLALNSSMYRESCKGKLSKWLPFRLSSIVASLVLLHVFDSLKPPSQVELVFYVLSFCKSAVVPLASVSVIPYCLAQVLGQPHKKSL
Test: LXR, FXR and VP16 reporter activity, cell-based, luciferase reporter, ROR modulator project, late-stage follow-up (AID 2117)
Conditions: cell-based luciferase reporter panel, G6Pase Promoter
measured_parameter: pIC50
Friendly reminder that pIC50 comes from taking -log10 of the concentration in mol/L.

Reported pIC50 for CC(C)(C)c1ccc(S(=O)(=O)Nc2ccc(C(O)(C(F)(F)F)C(F)(F)F)cc2)cc1 : what is it?
5.08

* * *

Molecular target: Oxysterols receptor LXR-beta (Homo sapiens) (UniProt P55055)
Sequence (P55055 whole entry, looked up): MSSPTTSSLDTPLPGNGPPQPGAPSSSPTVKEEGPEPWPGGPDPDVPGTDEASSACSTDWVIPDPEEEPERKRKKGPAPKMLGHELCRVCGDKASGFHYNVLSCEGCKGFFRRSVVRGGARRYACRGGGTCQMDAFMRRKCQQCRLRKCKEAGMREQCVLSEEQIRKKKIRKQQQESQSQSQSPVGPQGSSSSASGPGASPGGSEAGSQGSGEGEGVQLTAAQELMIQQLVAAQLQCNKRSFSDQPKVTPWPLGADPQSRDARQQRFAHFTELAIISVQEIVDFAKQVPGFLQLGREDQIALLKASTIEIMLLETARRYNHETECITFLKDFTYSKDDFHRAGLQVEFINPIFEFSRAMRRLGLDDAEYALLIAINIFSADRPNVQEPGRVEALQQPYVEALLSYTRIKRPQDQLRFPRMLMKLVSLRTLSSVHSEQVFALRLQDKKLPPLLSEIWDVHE
Test: LXR, FXR and VP16 reporter activity, cell-based, luciferase reporter, ROR modulator project, late-stage follow-up (AID 2117)
Conditions: cell-based luciferase reporter panel, activation potency
measured_parameter: pEC50
Friendly reminder that pEC50 comes from taking -log10 of the concentration in mol/L.

{"smiles_string": "COc1cccc(S(=O)(=O)Nc2ccc(C(O)(C(F)(F)F)C(F)(F)F)cc2)c1", "result": 4.74}

Report pEC50 for O=S(=O)(Nc1ccc(C(O)(C(F)(F)F)C(F)(F)F)cc1)c1ccc(Cl)c2nonc12 tested on Oxysterols receptor LXR-beta (Homo sapiens) (UniProt P55055).
4.92

Report pEC50 for O=S(=O)(Nc1ccc(C(O)(C(F)(F)F)C(F)(F)F)cc1)c1cccc2ccccc12 tested on Oxysterols receptor LXR-beta (Homo sapiens) (UniProt P55055).
5.24

Reference source: PubChem BioAssay AID2117
